# assayDetails: Toxicity liver stage against HepG2, at 10uM
# Type: cell-based
# Set-up: test concentration 10 uM, cell line HepG2-A16-CD81EGFP
# details: human, HepG2-A16-CD81EGFP cells; read-out: INHIBITION
metricName: cytotoxicity at 10 µM
Note to self: number, then unit, no commentary.

For orientation, consider the following solved cases.
molecule	cytotoxicity at 10 µM
CC(C)(C)C(=O)Nc1ccc(Oc2ccsc2C(=O)O)cc1	7.26%
c1nc(N2CCCCC2Cn2cncn2)c2sccc2n1 (stereo not drawn)	9.43%
CC(C)c1nc(O)c2nnn(C[C@H]3CCCN(Cc4cccs4)C3)c2n1	10.8%
COCCN(CCOC)C(=O)c1c[nH]nc1-c1cccc(F)c1	-0.25%
O=S(=O)(Nc1ccc(N2CCOCC2)cn1)c1cccc(F)c1	-9.68%
O=C(CC1=CSC2=NCCCN12)N1CCCCC1c1cccc(F)c1 (stereo not drawn)	-160%
O[C@H]1CN(CCOc2ccc(F)cc2)CC[C@@]12CCCO2	-28.8%
CN(C)c1ccc(C(=O)N2CCCC(n3cccn3)C2)nn1 (stereo not drawn)	-4.43%

q: Look at this molecule and give its reported cytotoxicity at 10 µM. O=C(NCC1CC1)c1n[nH]c2c1CNCC2
a: 4.14%
